Where do the numbers come from? From the Immune Epitope Database (IEDB).

target: HLA-A*69:01; assay: IEDB peptide-MHC binding, purified MHC/competitive/fluorescence; filed as Kd, often an IC50 or EC50 that approximates it; bounds were set here for any values at or beyond the usual limits of such assays; details: source organism: Human immunodeficiency virus 1
Reported Endpoint: Kd

> print(dat)
   monomer.sequence  measured.result
1         GLADQLIHI          ≥ 20 µM

###

biological target: HLA-B*07:02; assay: IEDB peptide-MHC binding, purified MHC/direct/fluorescence; filed as Kd, often an IC50 or EC50 that approximates it; bounds were set here for any values at or beyond the usual limits of such assays; conditions: source organism: Camelpox virus CMS
Reported Endpoint: Kd

> print(dat)
   monomer.sequence  reported.endpoint  measured.result
1         REVFYFGKF                 Kd          ≥ 20 µM

###

biological target: HLA-A*01:01; experiment: IEDB peptide-MHC binding, purified MHC/direct/fluorescence; filed as Kd, often an IC50 or EC50 that approximates it; bounds were set here for any values at or beyond the usual limits of such assays; conditions: source organism: Yersinia pestis
pKd: −log10 of the molar value.
Reported Endpoint: pKd

> print(dat)
   monomer.sequence  measured.result
1         VPRVHNQPQ           ≤ 4.70

###

molecular target: HLA-A*01:01; assay: IEDB peptide-MHC binding, purified MHC/direct/fluorescence; filed as Kd, often an IC50 or EC50 that approximates it; bounds were set here for any values at or beyond the usual limits of such assays; details: source organism: Serratia marcescens
Reported Endpoint: Kd

> print(dat)
   monomer.sequence  measured.result
1         LIPDGDGEV          ≥ 20 µM

###

target: HLA-A*68:01; experiment: IEDB peptide-MHC binding, purified MHC/competitive/radioactivity; filed as Kd, often an IC50 or EC50 that approximates it; bounds were set here for any values at or beyond the usual limits of such assays; conditions: source organism: Lymphocytic choriomeningitis virus (strain Traub)
pKd: −log10 of the molar value.
Reported Endpoint: pKd

> print(dat)
   monomer.sequence  reported.endpoint  measured.result
1         KCHDHYLCR                pKd           ≤ 4.32

###

Recorded measurements of Kd, one per entry
target: HLA-B*51:01; assay: IEDB peptide-MHC binding, purified MHC/competitive/radioactivity; filed as Kd, often an IC50 or EC50 that approximates it; bounds were set here for any values at or beyond the usual limits of such assays; details: source organism: Mammarenavirus lassaense
Reported Endpoint: Kd (µM)

> print(dat)
   monomer.sequence  reported.endpoint  qualifier  measured.result
1         TPVEIVVDM                 Kd          =             9.82
2         CPFLFLIVL                 Kd          ≥             54.7
3        FPAIFSAEVL                 Kd          =             9.91
4        FPYVMGDVEL                 Kd          =            0.304

###

biological target: HLA-A*80:01; test: IEDB peptide-MHC binding, purified MHC/direct/fluorescence; filed as Kd, often an IC50 or EC50 that approximates it; bounds were set here for any values at or beyond the usual limits of such assays; settings: source organism: dengue virus type 1
Reported Endpoint: Kd

> print(dat)
   monomer.sequence  assay.system  reported.endpoint  measured.result
1         ESDPEGALW   HLA-A*80:01                 Kd          ≥ 20 µM

###

target: HLA-A*30:02; test: IEDB peptide-MHC binding, purified MHC/competitive/radioactivity; filed as Kd, often an IC50 or EC50 that approximates it; bounds were set here for any values at or beyond the usual limits of such assays; details: source organism: Lymphocytic choriomeningitis virus (strain Armstrong)
pKd: −log10 of the molar value.
Reported Endpoint: pKd

> print(dat)
   monomer.sequence  measured.result
1         GPDIYKGVY             5.74

###

molecular target: HLA-B*18:01; experiment: IEDB peptide-MHC binding, purified MHC/competitive/radioactivity; filed as Kd, often an IC50 or EC50 that approximates it; bounds were set here for any values at or beyond the usual limits of such assays; conditions: source organism: Lassa virus Josiah
Reported Endpoint: Kd

> print(dat)
   monomer.sequence  reported.endpoint  measured.result
1        AEAQMSIQLI                 Kd        ≥ 23.5 µM

###

target: HLA-B*57:01; assay: IEDB peptide-MHC binding, purified MHC/competitive/radioactivity; filed as Kd, often an IC50 or EC50 that approximates it; bounds were set here for any values at or beyond the usual limits of such assays; details: source organism: Dengue virus 2 Jamaica/1409/1983
pKd: −log10 of the molar value.
Reported Endpoint: pKd

> print(dat)
   monomer.sequence  measured.result
1        ESSPNPTIEA             5.68
2         HTWTEQYKF             8.63

###

target: HLA-B*51:01; test: IEDB peptide-MHC binding, purified MHC/direct/fluorescence; filed as Kd, often an IC50 or EC50 that approximates it; bounds were set here for any values at or beyond the usual limits of such assays; details: source organism: Vibrio cholerae O395
Reported Endpoint: Kd

> print(dat)
   monomer.sequence  assay.system  measured.result
1         VVSEIDLQW   HLA-B*51:01          ≥ 20 µM

###

molecular target: HLA-B*15:17; assay: IEDB peptide-MHC binding, purified MHC/direct/fluorescence; filed as Kd, often an IC50 or EC50 that approximates it; bounds were set here for any values at or beyond the usual limits of such assays; details: source organism: Brucella suis 1330
Reported Endpoint: Kd (nM)

> print(dat)
   monomer.sequence  measured.result
1         QAHMGIAGL                3

###

Kd reference
biological target: HLA-A*02:03; assay: IEDB peptide-MHC binding, purified MHC/competitive/radioactivity; filed as Kd, often an IC50 or EC50 that approximates it; bounds were set here for any values at or beyond the usual limits of such assays; settings: source organism: Dengue virus 1 Brazil/97-11/1997
Reported Endpoint: Kd

> print(dat)
   monomer.sequence  measured.result
1         YMPSVVETL            15 nM
2        ILLKATLLAV          2.21 nM
3         LLILCTSQI          8.71 nM

###

target: HLA-B*18:01; test: IEDB peptide-MHC binding, purified MHC/competitive/fluorescence; filed as Kd, often an IC50 or EC50 that approximates it; bounds were set here for any values at or beyond the usual limits of such assays; details: source organism: Coxiella burnetii 'MSU Goat Q177'
pKd: −log10 of the molar value.
Reported Endpoint: pKd

> print(dat)
   monomer.sequence  measured.result
1         YYLIKYLHV           ≤ 4.70

###

target: HLA-B*08:01; experiment: IEDB peptide-MHC binding, purified MHC/direct/fluorescence; filed as Kd, often an IC50 or EC50 that approximates it; bounds were set here for any values at or beyond the usual limits of such assays; settings: source organism: Influenza A virus (A/WSN/1933(H1N1))
pKd: −log10 of the molar value.
Reported Endpoint: pKd

> print(dat)
   monomer.sequence  measured.result
1         NLEPGTFDL           ≤ 4.70

###

target: HLA-B*27:03; test: IEDB peptide-MHC binding, purified MHC/competitive/fluorescence; filed as Kd, often an IC50 or EC50 that approximates it; bounds were set here for any values at or beyond the usual limits of such assays; settings: source organism: Coxiella burnetii 'MSU Goat Q177'
Reported Endpoint: Kd

> print(dat)
   monomer.sequence  reported.endpoint  measured.result
1         YYLIKYLHV                 Kd          ≥ 20 µM

###

molecular target: HLA-A*01:01; experiment: IEDB peptide-MHC binding, purified MHC/direct/fluorescence; filed as Kd, often an IC50 or EC50 that approximates it; bounds were set here for any values at or beyond the usual limits of such assays; conditions: source organism: Orthohantavirus andesense
pKd: −log10 of the molar value.
Reported Endpoint: pKd

> print(dat)
   monomer.sequence  assay.system  reported.endpoint  measured.result
1         YRRKLTNPA   HLA-A*01:01                pKd           ≤ 4.70

###

target: HLA-B*07:02; experiment: IEDB peptide-MHC binding, purified MHC/direct/fluorescence; filed as Kd, often an IC50 or EC50 that approximates it; bounds were set here for any values at or beyond the usual limits of such assays; details: source organism: West Nile virus
pKd: −log10 of the molar value.
// reported pKd per item
Reported Endpoint: pKd

> print(dat)
   monomer.sequence  measured.result
1         KCRVKMEKL           ≤ 4.70
2         TEGEGRVIL           ≤ 4.70
3         GHGTVVLEL           ≤ 4.70
